Test system: human monoclonal antibody CRJA
Assay type: binding
Binding of CRJA to linear peptide (PEPSCAN-ELISA signal) vs 90: at or above is t, below is f.

AAYNWKMAGDPRYEE | f

Assess whether reported Binding of CRJA to linear peptide (PEPSCAN-ELISA signal) for STYCSTNHDYTIWMP sits at 90 or higher.
f

Lookup TKESLVIISPSVADL
t

# repeat for SVRTWNEILPSKGCL
t

And for LKVGYILAIKMNGFT ?
f

CSTNHDYTIWMPENP ?
f

* * *

Test system: human monoclonal antibody CRJB
Assay type: binding
value-kind: Binding of CRJB (10 μg/ml) to looped/cyclic peptide (PEPSCAN-ELISA signal)
Response field accepts a number only; no unit should be typed.

# count of solved cases: 2
NLSGFSYMELKVGYI | 83
TIWMPENPRLGMSCD | 82

So what does the record say about Binding of CRJB (10 μg/ml) to looped/cyclic peptide (PEPSCAN-ELISA signal) for VSSTYCSTNHDYTIW ?
61

Another sequence to look at: RSLHSRVFPSGKCSG
93

* * *

Reported Binding of CRJA (10 μg/ml) to looped/cyclic peptide (PEPSCAN-ELISA) values follow for various sequences
Test system: human monoclonal antibody CRJA
Format: binding
# print the numeric value only

Here's what some known entries look like.
HYKSVRTWNEILPSK | 100
QSSLLQQHMELLESS | 99
LVRKREECLDALESI | 101
IFNKTLMEADAHYKS | 98
EIEHLVVEELVRKRE | 93
ELVRKREECLDALES | 98
VRKREECLDALESIM | 101
NEILPSKGCLRVGGR | 105
RKLVPGFGKAYTIFN | 44
KGSETCGFVDERGLY | 71

Endpoint output: Binding of CRJA (10 μg/ml) to looped/cyclic peptide (PEPSCAN-ELISA) of LDALESIMTTKSVSF . Value?
90

And then KLCGVLGLRLMDGTW , what is it?
82

Follow-up item: VSFRRLSHLRKLVPG
99

# iterate: LESIMTTKSVSFRRL
91

* * *

# Binding of CRJA to looped/cyclic peptide (PEPSCAN-ELISA signal) listing for each entry below
Tested on: human monoclonal antibody CRJA
Format: binding
Format: numeric value only, no unit, no commentary.

Observe how each entry below is paired with its result.
PSTVFKDGDEAEDFV | 113
DFVEVHLPDVHNQVS | 113

Okay, now this sequence:
What Binding of CRJA to looped/cyclic peptide (PEPSCAN-ELISA signal) value was documented for this sequence, VHNQVSGVDLGLPNW ?
106

* * *

System: human monoclonal antibody CRJA
Assay type: binding
I would appreciate it if you labelled entries criterion met when Binding of CRJA (10 μg/ml) to looped/cyclic peptide (PEPSCAN-ELISA) is 100 or higher, otherwise criterion not met.

Examples with answers:
EMQSSLLQQHMELLE | criterion not met
VAMQTSNETKWCPPD | criterion not met
DALESIMTTKSVSFR | criterion met

Tell me whether Binding of CRJA (10 μg/ml) to looped/cyclic peptide (PEPSCAN-ELISA) is at least 100 here: ESSVIPLVHPLADPS
criterion not met

Can you check QHMELLESSVIPLVH next?
criterion met

Same question, LLQQHMELLESSVIP this time
criterion met

Could you do the same for QQHMELLESSVIPLV , please?
criterion not met

* * *

Measured Binding of CRJB to linear peptide (PEPSCAN-ELISA signal), listed per entry for reference.
Tested on: human monoclonal antibody CRJB
Assay type: binding
Returns: the value as a bare number; no unit string appended.

Reference set, count: 10
SDEIEHLVVEELVRK | 117
CPPDQLVNLHDFRSD | 137
EELVRKREECLDALE | 112
GPWSPIDIHHLSCPN | 114
CGFVDERGLYKSLKG | 115
LMDGTWVAMQTSNET | 106
TTTFKRKHFRPTPDA | 108
DEIEHLVVEELVRKR | 123
PENPRLGMSCDIFTN | 111
VGGRCHPHVNGVFFN | 136

Given the entry KLKLCGVLGLRLMDG , report its measured Binding of CRJB to linear peptide (PEPSCAN-ELISA signal).
120

Now this one: NYTNFVGYVTTTFKR
114

How about this sequence: KHFRPTPDACRAAYN
112

Now the sequence YPDYRWLRTVKTTKE
97

Now consider DIFTNSRGKRASKGS and answer again.
107

Also check TLMEADAHYKSVRTW
114

* * *

Tested on: human monoclonal antibody CRJA
Type: binding
value-kind: Binding of human monoclonal antibody CRJA to linear peptide (PEPSCAN-ELISA signal)
# print the numeric value only

Example results:
VHNQVSGVDLGLPNW | 120
DEAEDFVEVHLPDVH | 105
DFVEVHLPDVHNQVS | 92
DPSTVFKDGDEAEDF | 132

Fill in: Binding of human monoclonal antibody CRJA to linear peptide (PEPSCAN-ELISA signal) of HLPDVHNQVSGVDLG is ___
96

Another sequence: HNQVSGVDLGLPNWG
66

Also, EVHLPDVHNQVSGVD please.
104

Next up: GDEAEDFVEVHLPDV
93

Next entry: VHPLADPSTVFKDGD
111

* * *

// reported Binding of CRJA to linear peptide (PEPSCAN-ELISA signal) per item
System: human monoclonal antibody CRJA
Type: binding
Kindly provide the number alone.

// known answers, use as guide
RGKRASKGSETCGFV | 87
ADLDPYDRSLHSRVF | 100
VPGFGKAYTIFNKTL | 96

# query: Binding of CRJA to linear peptide (PEPSCAN-ELISA signal) of entry ISPSVADLDPYDRSL
56

Same question for TYCSTNHDYTIWMPE please.
87

Entry to check: CDIFTNSRGKRASKG
133

And what about the sequence AHYKSVRTWNEILPS ?
106

Entry to check: SVSFRRLSHLRKLVP
101

* * *

System: human monoclonal antibody CRJA
Type: binding
Examples of sequences with documented Binding of CRJA (10 μg/ml) to looped/cyclic peptide (PEPSCAN-ELISA signal) follow.
# print the numeric value only

VFPSGKCSGVAVSST | 55
GMSCDIFTNSRGKRA | 51
RTVKTTKESLVIISP | 88
DIFTNSRGKRASKGS | 99
TPDACRAAYNWKMAG | 111
MPENPRLGMSCDIFT | 111
ISPSVADLDPYDRSL | 46
CTNLSGFSYMELKVG | 79
EDEGCTNLSGFSYME | 54
LSGFSYMELKVGYIL | 83

Record lookup: for human monoclonal antibody CRJA, what Binding of CRJA (10 μg/ml) to looped/cyclic peptide (PEPSCAN-ELISA signal) belongs to DYRWLRTVKTTKESL ?
45

And for GVVTEAENYTNFVGY ?
90

Repeat with LAIKMNGFTCTGVVT
79

Try VEDEGCTNLSGFSYM next.
86

* * *

Consider the following sequences and their measured Binding of CRJB to linear peptide (PEPSCAN-ELISA signal) readings.
System: human monoclonal antibody CRJB
Assay type: binding

Example sequences with recorded Binding of CRJB to linear peptide (PEPSCAN-ELISA signal):
PWSPIDIHHLSCPNN | 104
DKLGPWSPIDIHHLS | 103
HHLSCPNNLVVEDEG | 76
KLVPGFGKAYTIFNK | 114
SGKCSGVAVSSTYCS | 121
PRYEESLHNPYPDYR | 115

human monoclonal antibody CRJB / Binding of CRJB to linear peptide (PEPSCAN-ELISA signal) / KTLMEADAHYKSVRT : value?
98

Do the same for ILDKLGPWSPIDIHH please
104

Also need EHLVVEELVRKREEC , thanks.
114

Continue with YKSLKGACKLKLCGV
112

Note, next up: GLRLMDGTWVAMQTS
138

# iterate: LGLRLMDGTWVAMQT
115

What do you have for IYTILDKLGPWSPID ?
97

* * *

Tested on: human monoclonal antibody CRJB
Type: binding
value-kind: Binding of CRJB (10 μg/ml) to looped/cyclic peptide (PEPSCAN-ELISA signal)
Form field (numeric): enter value without unit.

TGVVTEAENYTNFVG | 69

What does the data say about its Binding of CRJB (10 μg/ml) to looped/cyclic peptide (PEPSCAN-ELISA signal)? Entry: YRWLRTVKTTKESLV
70

Also YCSTNHDYTIWMPEN ?
71

And the next one, IHHLSCPNNLVVEDE ?
71

Cool, now SCPNNLVVEDEGCTN
69

Lookup EDEGCTNLSGFSYME
68

Now consider KMNGFTCTGVVTEAE .
71

Now the sequence FKRKHFRPTPDACRA
72

Can you check HFRPTPDACRAAYNW next?
71
